# Study System: CD28 (human) (UniProt P10747)
# Assay Method Text: flow cytometry, transfected cells
In this section, each of the binders is paired with its reported MFI.
Could you give me the number in MFI? Just the number is fine.

ICOSL-Fc N52A/N57Y/Q100A (Fc fusion) DTQEKEVRAMVGSDVELSCACPEGSRFDLNDVYVYWQTSESKTVVTYHIPQASSLEYVDSRYRNRALMSPAGMLRGDFSLRLFNVTPQDEQKFHCLVLSASLGFQEVLSVEVTLHVAANFSVPVVSAPHSPSQDELTFTCTSINGYPRPNVYWINKTDNSLLDQALQNDTVFLNMRGLYDVVSVLRIARTPSVNIGCCIENVLLQQNLTVGSQTGNDIGERDKITENPVSTGEKNAAT :: 147000
ICOSL-Fc N52T/N57H/Q100A (Fc fusion) DTQEKEVRAMVGSDVELSCACPEGSRFDLNDVYVYWQTSESKTVVTYHIPQTSSLEHVDSRYRNRALMSPAGMLRGDFSLRLFNVTPQDEQKFHCLVLSASLGFQEVLSVEVTLHVAANFSVPVVSAPHSPSQDELTFTCTSINGYPRPNVYWINKTDNSLLDQALQNDTVFLNMRGLYDVVSVLRIARTPSVNIGCCIENVLLQQNLTVGSQTGNDIGERDKITENPVSTGEKNAAT :: 113000
ICOSL ECD-Fc N119Q/N168Q/N207Q (Fc fusion) DTQEKEVRAMVGSDVELSCACPEGSRFDLNDVYVYWQTSESKTVVTYHIPQNSSLENVDSRYRNRALMSPAGMLRGDFSLRLFNVTPQDEQKFHCLVLSQSLGFQEVLSVEVTLHVAAQFSVPVVSAPHSPSQDELTFTCTSINGYPRPNVYWINKTDNSLLDQALQQDTVFLNMRGLYDVVSVLRIARTPSVNIGCCIENVLLQQQLTVGSQTGNDIGERDKITENPVSTGEKNAAT :: 921

Shift focus to the following entry.
Request: What measured MFI goes with ICOSL ECD-Fc N52Q/N84Q/N119Q/N207Q (Fc fusion) DTQEKEVRAMVGSDVELSCACPEGSRFDLNDVYVYWQTSESKTVVTYHIPQQSSLENVDSRYRNRALMSPAGMLRGDFSLRLFQVTPQDEQKFHCLVLSQSLGFQEVLSVEVTLHVAAQFSVPVVSAPHSPSQDELTFTCTSINGYPRPNVYWINKTDNSLLDQALQNDTVFLNMRGLYDVVSVLRIARTPSVNIGCCIENVLLQQQLTVGSQTGNDIGERDKITENPVSTGEKNAAT ?
Response: 602
